meta.source: paper PMC9362842

- Type: physicochemical
- run parameters: pH 7.4, 25 °C, I = 0.1 M KCl
attribute measured: log K´La (conditional stability constant)

molecule	test value
O=C(O)CN(CCN(CC(=O)O)CC(=O)O)CC(=O)O [H4EDTA, ethylenediamine tetraacetic acid]	12.67
O=C(O)CN1CCN(CC(=O)O)CCN(CC(=O)O)CCN(CC(=O)O)CC1 [H4DOTA]	15.67
O=C(O)c1cccc(CN2CCOCCOCCN(Cc3cccc(C(=O)O)n3)CCOCCOCC2)n1 [H2macropa]	14.63
O=C(O)CN(CCN(CC(=O)O)CC(=O)O)CCN(CC(=O)O)CC(=O)O [H5DTPA, diethylenetriamine pentaacetic acid]	15.27

###

- Assay type: physicochemical
- run parameters: [M]total = 10^−6 M, [L]total = 10^−5 M, pH 7.4, 25 °C, I = 0.1 M KCl
attribute measured: pLa (−log [M]free)

compound	test value
O=C(O)CN1CCN(CC(=O)O)CCN(CC(=O)O)CCN(CC(=O)O)CC1 [H4DOTA]	16.62
O=C(O)CN(CCN(CC(=O)O)CC(=O)O)CCN(CC(=O)O)CC(=O)O [H5DTPA, diethylenetriamine pentaacetic acid]	16.22
O=C(O)CN(CCN(CC(=O)O)CC(=O)O)CC(=O)O [H4EDTA, ethylenediamine tetraacetic acid]	13.62
O=C(O)c1cccc(CN2CCOCCOCCN(Cc3cccc(C(=O)O)n3)CCOCCOCC2)n1 [H2macropa]	15.58
